Measured target: ETS1 (UniProt P14921)
Sequence: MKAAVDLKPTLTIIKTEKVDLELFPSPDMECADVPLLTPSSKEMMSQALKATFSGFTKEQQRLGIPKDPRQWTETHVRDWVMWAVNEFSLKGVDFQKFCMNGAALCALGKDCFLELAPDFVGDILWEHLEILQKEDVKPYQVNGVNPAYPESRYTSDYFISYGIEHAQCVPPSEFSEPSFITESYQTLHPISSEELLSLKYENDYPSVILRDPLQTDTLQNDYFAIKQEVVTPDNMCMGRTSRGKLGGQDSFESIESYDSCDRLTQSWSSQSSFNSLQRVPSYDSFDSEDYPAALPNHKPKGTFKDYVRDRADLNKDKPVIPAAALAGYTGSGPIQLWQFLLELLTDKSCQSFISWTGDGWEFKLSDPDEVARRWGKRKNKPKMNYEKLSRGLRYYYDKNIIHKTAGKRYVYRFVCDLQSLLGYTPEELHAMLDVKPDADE
Assay protocol: ETS1 binding intensity (PBM fluorescence) (arbitrary fluorescence units); higher = stronger binding
Test conditions: ETS1 concentration 10 nM
The full ranking holds about 2,700 sequences; the median of “arbitrary fluorescence units” is about 4,100, and the highest 2% start at about 54,000. Only a selection was taken, and the highest values are over-represented in it overall.
ETS1 binding intensity by entry:

# Sequence input, Result value
measured = [
    ("TATGTATTTCCTTATTGCAAAGGGCGGAAACGTGTA", 3980),
    ("GTCACTTCCGGCGCCCGCCTACACGCACTTCCGTTC", 88200),
    ("GCCGGCGAGCGGAAGAGGCTGCAGGAAGGCCGGCCC", 3170),
    ("AGGAGGAATGGCAGGAAGAGGAAGTGAAACCGACAA", 1690),
]

GET /values?readout=ETS1 binding intensity&system=ETS1 (UniProt P14921)&item= `CAGGCCGGAAGTACGTGAGAGGAGACTTCCGGCCAC`
31200

Also `GGTCCGGAAGGGAGGAGAACACAAGCAGGATATAAC` ?
860

Same lookup for `AAGACTTCTACTTCCGGAGACTTCCTCATGCCATGC` , please.
33400

# iterate: `TTCCGACCGGAAGTGAGAAGAGGAGGAAGTTGGCTG`
64200

====

Measured target: ETS1 (UniProt P14921)
Sequence: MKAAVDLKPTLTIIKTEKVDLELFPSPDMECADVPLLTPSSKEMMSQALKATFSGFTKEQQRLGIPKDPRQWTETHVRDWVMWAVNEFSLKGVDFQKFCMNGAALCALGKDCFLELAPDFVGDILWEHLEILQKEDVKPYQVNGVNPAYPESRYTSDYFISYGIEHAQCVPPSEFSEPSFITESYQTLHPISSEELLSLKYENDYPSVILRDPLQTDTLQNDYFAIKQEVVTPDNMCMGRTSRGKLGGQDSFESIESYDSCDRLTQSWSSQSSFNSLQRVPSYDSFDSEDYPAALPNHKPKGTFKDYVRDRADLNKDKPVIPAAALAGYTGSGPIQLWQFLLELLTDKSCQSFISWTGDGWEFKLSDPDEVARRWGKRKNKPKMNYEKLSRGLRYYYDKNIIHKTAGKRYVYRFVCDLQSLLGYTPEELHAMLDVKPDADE
Assay protocol: ETS1 binding intensity (PBM fluorescence) (arbitrary fluorescence units); higher = stronger binding
Test conditions: ETS1 concentration 10 nM
Over roughly 2,700 sequences, “arbitrary fluorescence units” has its median near 4,100; the highest 2% begin near 54,000. The sample holds the highest values, similar sequences and a random draw of the others, so the mix is not that of the screen.
I would appreciate it if you labelled entries true (1) when ETS1 binding intensity is 4000 or higher, otherwise false (0).

A selection of reference data follows.
# Sequence input, Label class
measured = [
    ("CATCCTTGGCATTTCCTCTGAGGAAGCTCGCACCCC", "false (0)"),
    ("TGGGGTTTCCTGGGGTGTTCTGTCTACATCCTGAGA", "true (1)"),
    ("GGTGCTCACGGATGCTACGCTTGTTCCTGTCTCCTC", "false (0)"),
]

Hi, just wondering whether `AGCCTTTGTATTTCCTTTCAGAGGAAACCCCAATGC` shows ETS1 binding intensity of 4000 or higher.
true (1)

Next sequence: `GCAGGAGACGGAAGATGCATGGGTTTCCTGGCGCGC`
false (0)
